Test system: MDA-MB-231 cells
experiment description: Half inhibitory concentration (IC50) on BET-expressing tumor cells, CCK-8, MDA-MB-231
Format: cell-based
setup conditions: Homo sapiens, 48/72 h, read-out: IC50 (nM)/MDA-MB-231 cell line
Measured IC50 values are reported for all entries that follow.
Number first, unit second: that is the form wanted.

compound="Cc1sc2c(c1C)C(c1ccc(Cl)cc1)=N[C@@H](CC(=O)NCCCCCCSc1cccc3c1CN(C1CCC(=O)NC1=O)C3=O)c1nnc(C)n1-2 (stereo partly drawn)" measurement="313 nM"

For the next question, use this compound.
[in] Retrieve IC50 measured for Cc1sc2c(c1C)C(c1ccc(Cl)cc1)=N[C@@H](CC(=O)NCCCCCCCCSc1cccc3c1CN(C1CCC(=O)NC1=O)C3=O)c1nnc(C)n1-2 (stereo partly drawn) and print it.
[out] 537 nM

---

target entity: BCR-ABL (Homo sapiens)
Sequence (P00519 with tags, fused parts or gaps): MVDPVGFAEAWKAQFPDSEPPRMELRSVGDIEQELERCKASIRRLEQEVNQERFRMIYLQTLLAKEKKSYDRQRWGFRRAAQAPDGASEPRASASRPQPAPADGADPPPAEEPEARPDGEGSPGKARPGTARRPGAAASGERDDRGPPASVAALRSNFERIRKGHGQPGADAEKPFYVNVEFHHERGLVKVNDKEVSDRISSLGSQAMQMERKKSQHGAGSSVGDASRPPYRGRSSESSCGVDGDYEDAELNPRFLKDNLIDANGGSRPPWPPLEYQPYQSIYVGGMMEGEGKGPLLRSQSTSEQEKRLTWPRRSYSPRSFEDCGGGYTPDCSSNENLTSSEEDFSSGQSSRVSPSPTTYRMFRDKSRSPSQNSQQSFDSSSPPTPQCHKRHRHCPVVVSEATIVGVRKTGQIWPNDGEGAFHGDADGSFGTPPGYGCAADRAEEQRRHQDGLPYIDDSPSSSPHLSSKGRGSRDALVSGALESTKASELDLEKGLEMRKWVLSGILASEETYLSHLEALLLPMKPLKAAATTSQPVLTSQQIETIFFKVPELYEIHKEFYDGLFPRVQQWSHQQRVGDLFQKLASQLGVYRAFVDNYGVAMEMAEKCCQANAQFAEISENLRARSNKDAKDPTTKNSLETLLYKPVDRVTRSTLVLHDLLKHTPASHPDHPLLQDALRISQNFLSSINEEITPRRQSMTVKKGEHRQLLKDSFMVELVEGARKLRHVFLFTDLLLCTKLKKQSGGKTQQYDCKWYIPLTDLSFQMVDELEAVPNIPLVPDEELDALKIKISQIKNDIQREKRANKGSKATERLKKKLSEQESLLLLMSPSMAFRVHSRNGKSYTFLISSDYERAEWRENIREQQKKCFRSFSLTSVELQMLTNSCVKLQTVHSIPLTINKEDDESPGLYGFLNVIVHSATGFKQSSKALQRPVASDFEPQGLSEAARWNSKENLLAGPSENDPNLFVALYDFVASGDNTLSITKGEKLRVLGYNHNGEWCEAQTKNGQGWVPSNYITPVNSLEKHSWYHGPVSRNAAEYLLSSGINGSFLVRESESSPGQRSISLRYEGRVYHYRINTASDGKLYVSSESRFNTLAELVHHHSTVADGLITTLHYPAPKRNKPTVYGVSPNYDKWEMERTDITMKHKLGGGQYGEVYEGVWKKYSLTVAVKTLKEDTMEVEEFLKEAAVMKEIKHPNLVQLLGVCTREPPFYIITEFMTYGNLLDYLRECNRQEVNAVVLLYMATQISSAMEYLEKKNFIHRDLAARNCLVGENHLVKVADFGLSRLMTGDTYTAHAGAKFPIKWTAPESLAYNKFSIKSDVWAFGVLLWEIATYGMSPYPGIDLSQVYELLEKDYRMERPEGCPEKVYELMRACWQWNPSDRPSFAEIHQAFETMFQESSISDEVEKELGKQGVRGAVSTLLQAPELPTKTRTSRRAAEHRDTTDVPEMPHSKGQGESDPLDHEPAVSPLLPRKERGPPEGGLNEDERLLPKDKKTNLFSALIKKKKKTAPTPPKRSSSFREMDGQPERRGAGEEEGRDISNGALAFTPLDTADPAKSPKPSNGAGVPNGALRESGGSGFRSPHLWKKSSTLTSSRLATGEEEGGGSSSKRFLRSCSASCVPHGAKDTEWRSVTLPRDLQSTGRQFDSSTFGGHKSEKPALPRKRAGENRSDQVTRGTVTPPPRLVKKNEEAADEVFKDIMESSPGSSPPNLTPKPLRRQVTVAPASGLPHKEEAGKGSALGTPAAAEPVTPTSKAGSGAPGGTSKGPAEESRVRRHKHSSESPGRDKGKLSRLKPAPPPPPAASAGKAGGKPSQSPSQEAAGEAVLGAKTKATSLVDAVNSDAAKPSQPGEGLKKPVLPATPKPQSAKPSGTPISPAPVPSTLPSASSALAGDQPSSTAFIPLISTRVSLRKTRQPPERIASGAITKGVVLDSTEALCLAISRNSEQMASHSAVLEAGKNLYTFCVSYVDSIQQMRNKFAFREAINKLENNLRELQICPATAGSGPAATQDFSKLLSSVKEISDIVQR
experiment description: Western-blot half-degradation concentration (DC50) / degradation of BCR-ABL in K562 cells
setup conditions: read-out: DC50 (nM)/K562 cell line, BCR-ABL protein degradation, 24 hours, Western-blot
In this section we review reported DC50 values for a set of molecules.
Reply with just the number (in nM).

molecule="Cc1nc(Nc2ncc(C(=O)Nc3c(C)cccc3Cl)s2)cc(N2CCN(C(=O)CCSc3cccc4c3CN(C3CCC(=O)NC3=O)C4=O)CC2)n1 (stereo not drawn) [SIAIS171106]" endpoint=DC50 measurement=10.3
molecule="Cc1nc(Nc2ncc(C(=O)Nc3c(C)cccc3Cl)s2)cc(N2CCN(C(=O)CS(=O)(=O)c3cccc4c3C(=O)N(C3CCC(=O)NC3=O)C4=O)CC2)n1 (stereo not drawn) [SIAIS151108]" endpoint=DC50 measurement=245

Here's the next entry for you.
[in] In one line, give reported DC50 of the entry Cc1nc(Nc2ncc(C(=O)Nc3c(C)cccc3Cl)s2)cc(N2CCN(C(=O)CCCCCCSc3cccc4c3C(=O)N(C3CCC(=O)NC3=O)C4=O)CC2)n1 (stereo not drawn) [SIAIS151156] .
[out] 2.9

---

target entity: ALK protein (Homo sapiens)
Sequence (Q9UM73 with tags, fused parts or gaps): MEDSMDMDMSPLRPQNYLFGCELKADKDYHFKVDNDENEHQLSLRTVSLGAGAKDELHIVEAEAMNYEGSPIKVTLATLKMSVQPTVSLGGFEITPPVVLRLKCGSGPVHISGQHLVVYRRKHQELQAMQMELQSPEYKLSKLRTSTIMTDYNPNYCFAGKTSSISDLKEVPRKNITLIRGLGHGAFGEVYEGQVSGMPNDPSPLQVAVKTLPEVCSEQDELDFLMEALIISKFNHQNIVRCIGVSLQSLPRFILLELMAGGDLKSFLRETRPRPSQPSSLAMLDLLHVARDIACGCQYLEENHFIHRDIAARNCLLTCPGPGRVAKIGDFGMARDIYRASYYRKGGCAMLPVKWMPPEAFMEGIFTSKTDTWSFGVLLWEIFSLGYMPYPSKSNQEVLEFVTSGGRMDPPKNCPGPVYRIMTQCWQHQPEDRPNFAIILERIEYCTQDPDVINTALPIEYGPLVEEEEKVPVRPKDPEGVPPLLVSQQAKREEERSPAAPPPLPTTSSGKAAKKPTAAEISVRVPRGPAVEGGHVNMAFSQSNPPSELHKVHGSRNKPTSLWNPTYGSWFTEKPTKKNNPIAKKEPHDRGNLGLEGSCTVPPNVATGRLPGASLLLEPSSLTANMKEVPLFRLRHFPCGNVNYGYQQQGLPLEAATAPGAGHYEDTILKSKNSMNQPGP
experiment description: Western-blot half degradation concentration (DC50) of ALK protein in SR cells
Type: cell-based
setup conditions: 24 h drug treatment, read-out: DC50 (nM)/ SR cell line
Below: a set of entries, each annotated with reported DC50.

[in] Please give measured DC50 of the following entry: COc1cc(N2CCC(N3CCN(C(=O)CCCCSc4cccc5c4C(=O)N(C4CCC(=O)NC4=O)C5=O)CC3)CC2)ccc1Nc1ncc(Cl)c(Nc2ccccc2P(C)(C)=O)n1 (centres unmarked)
[out] 5.6 nM

[in] Report measured DC50; entry is COc1cc(N2CCC(N3CCN(C(=O)CSc4cccc5c4C(=O)N(C4CCC(=O)NC4=O)C5=O)CC3)CC2)ccc1Nc1ncc(Cl)c(Nc2ccccc2P(C)(C)=O)n1 (centres unmarked)
[out] 6 nM

---

Tested on: SR cells
experiment description: Half inhibitory concentration (IC50) on ALK-positive SR cell proliferation (CCK-8)
Assay type: cell-based
setup conditions: Homo sapiens; SR cells, 72 h drug treatment, CCK-8; read-out: IC50 (nM)/ SR cell line
Method: ALK-positive SR cells (human large cell immunoblastic lymphoma) were purchased from the American Type Culture Collection (ATCC); H3122 cells (human non-small cell lung cancer) were from the Shanghai University of Science and Technology Lin Haifan's research group. […] SR cells were seeded in 100 μL RPMI1640 complete medium at a density of 10,000 cells/well. […] After CCK-8 treatment for 2 h, the value of O.D.450 was measured using a microplate reader.
endpoint: IC50 (nM)
Reply with just the number (in nM).

Examples with answers:
compound="COc1cc(N2CCC(N3CCN(C(=O)CCCCCCSc4cccc5c4C(=O)N(C4CCC(=O)NC4=O)C5=O)CC3)CC2)ccc1Nc1ncc(Cl)c(Nc2ccccc2P(C)(C)=O)n1 (centres unmarked)" measurement=5.7
compound="COc1cc(N2CCC(N3CCN(C(=O)CCCCCSc4cccc5c4C(=O)N(C4CCC(=O)NC4=O)C5=O)CC3)CC2)ccc1Nc1ncc(Cl)c(Nc2ccccc2P(C)(C)=O)n1 (centres unmarked)" measurement=2.9
compound="COc1cc(N2CCC(NC(=O)CCSc3cccc4c3C(=O)N(C3CCC(=O)NC3=O)C4=O)CC2)ccc1Nc1ncc(Cl)c(Nc2ccccc2P(C)(C)=O)n1 (centres unmarked)" measurement=24.1
compound="COc1cc(N2CCC(N3CCN(CCCCCCSc4cccc5c4CN(C4CCC(=O)NC4=O)C5=O)CC3)CC2)ccc1Nc1ncc(Cl)c(Nc2ccccc2P(C)(C)=O)n1 (centres unmarked)" measurement=0.7

We now examine a further compound.
[in] Please report the measured IC50 for CCc1cc2c(cc1N1CCC(NC(=O)CSc3cccc4c3CN(C3CCC(=O)NC3=O)C4=O)CC1)C(C)(C)c1[nH]c3cc(C#N)ccc3c1C2=O (centres unmarked)
[out] 1.86
